Please respond with reported Ki for every item in the list.
Molecular target: Bcl-xL (Homo sapiens)
Sequence (Q07817 whole entry): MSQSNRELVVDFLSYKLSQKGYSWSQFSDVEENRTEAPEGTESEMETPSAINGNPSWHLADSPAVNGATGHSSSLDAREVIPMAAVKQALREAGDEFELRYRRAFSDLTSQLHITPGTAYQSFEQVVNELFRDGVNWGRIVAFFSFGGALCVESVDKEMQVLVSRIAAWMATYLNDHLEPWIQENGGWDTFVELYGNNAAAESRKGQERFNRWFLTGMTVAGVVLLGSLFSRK
Test: TR-FRET Bcl-xL binding assay (competition with probe F-Bak)
Details: in the presence of 1% human serum (HS), read-out: Bcl-xL Binding Ki (nM, 1% HS)
Your answer is read as nM, so omit the unit and give the number.

Return value of Ki for input COCCOC12CC3(C)CC(C)(CC(Cn4ncc(-c5ccc(N6CCc7cc(N8CCC(N)C8)cc(C(=O)Nc8nc9ccccc9s8)c7C6)nc5C(=O)O)c4C)(C3)C1)C2 (stereo not drawn) , no commentary. 2.3

Look up and report measured Ki for this entry: CNCCOC12CC3(C)CC(C)(CC(Cn4ncc(-c5ccc(-c6ccc7c(c6)N(C(=O)Nc6nc8ccccc8s6)CCC7)nc5C(=O)O)c4C)(C3)C1)C2 0.009

// Input: CNCC#Cc1cc2c(c(C(=O)Nc3nc4ccccc4s3)c1)CN(c1ccc(-c3cnn(CC45CC6(C)CC(C)(C4)CC(OCCOC)(C6)C5)c3C)c(C(=O)O)n1)CC2 . Output its Ki only. 0.9
